target system: recombinant human ACC1 (acetyl-CoA carboxylase 1) (Homo sapiens, UniProt Q13085)
Construct: NM_198834, amino acids 39—end; FLAG (C)
measurement protocol: Human ACC1 enzyme assay (HTRF ADP detection)
experimental conditions: 50 μM ATP, 20 μM acetyl-CoA, 15 min pre-incubation, 20 min at 22° C.; read-out: ACC 1 IC50
quantity kind: IC50 (µM)

In the examples that follow, each entry is paired with its recorded IC50.
[[record]]
compound = "Cc1ccc(-c2ccc(Cl)c(C3=C(O)C4(CCOCC4)NC3=O)c2)cc1F"
target_system = "recombinant human ACC1 (acetyl-CoA carboxylase 1) (Homo sapiens, UniProt Q13085)"
quantity_kind = "IC50"
measured = 0.663

[[record]]
compound = "Cc1ccc(-c2ccc(Cl)cc2)cc1C1=C(O)C2(CCCCCCC2)NC1=O"
target_system = "recombinant human ACC1 (acetyl-CoA carboxylase 1) (Homo sapiens, UniProt Q13085)"
quantity_kind = "IC50"
measured = 0.584

[[record]]
compound = "COC1CCC2(CC1)NC(=O)C(c1cc(-c3cc(F)ccc3F)ccc1C)=C2O (centres unmarked)"
target_system = "recombinant human ACC1 (acetyl-CoA carboxylase 1) (Homo sapiens, UniProt Q13085)"
quantity_kind = "IC50"
measured = 0.695


I: Cc1ccc(-c2ccc(F)cc2)cc1C1=C(O)C2(CCC(OCC(F)(F)F)CC2)NC1=O (centres unmarked)
II: Cc1ccc(-c2ccc(F)cc2F)cc1C1C(=O)N2CCOCCN2C1=O
Field: lower recorded IC50 (choose I or II ) Kindly state the label of the option you pick.
I

###

target system: recombinant human ACC1 (acetyl-CoA carboxylase 1) (Homo sapiens)
Construct: NM_198834, amino acids 39—end; FLAG (C); made in house; host or cells: baculovirus-transfected insect cells (Hi5)
measurement protocol: Human ACC1 enzyme assay (HTRF ADP detection)
Assay type: biochemical
experimental conditions: 50 μM ATP, 20 μM acetyl-CoA, 15 min pre-incubation, 20 min at 22° C.; read-out: ACC 1 IC50
quantity kind: IC50 (nM)

In the examples that follow, each entry is paired with its recorded IC50.
[[record]]
molecule = "CO[C@H]1CC[C@]2(CC1)NC(=O)C(c1cc(-c3ccc(F)c(Cl)c3)ccc1C)=C2O"
target_system = "recombinant human ACC1 (acetyl-CoA carboxylase 1) (Homo sapiens)"
quantity_kind = "IC50"
output_unit = "nM"
measured = 304

[[record]]
molecule = "Cc1ccc(-c2ccc(Cl)cc2)c(C)c1C1=C(O)C2(CCCOC2)NC1=O (centres unmarked)"
target_system = "recombinant human ACC1 (acetyl-CoA carboxylase 1) (Homo sapiens)"
quantity_kind = "IC50"
output_unit = "nM"
measured = 550

[[record]]
molecule = "O=C1C(c2cc(-c3ccc(F)cc3F)ccc2Cl)C(=O)N2CCOCCN12"
target_system = "recombinant human ACC1 (acetyl-CoA carboxylase 1) (Homo sapiens)"
quantity_kind = "IC50"
output_unit = "nM"
measured = 713


A: Cc1ccc(-c2ccc(Cl)cc2)cc1C1=C(O)CN(C2CC2)C1=O
B: Cc1ccc(-c2ccc(F)c(Cl)c2)cc1C1=C(O)C2(CCCC2)OC1=O
Task for the reader: decide whether A or B has the larger IC50. Kindly state the label of the option you pick.
B
(B: 1370 nM, A: 797 nM)

###

target system: recombinant human ACC1 (acetyl-CoA carboxylase 1) (Homo sapiens)
Construct: NM_198834, amino acids 39—end; FLAG (C)
measurement protocol: Human ACC1 enzyme assay (HTRF ADP detection);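 further: ADP by-product quantified by competitive HTRF immunoassay with europium cryptate anti-ADP antibody and d2-labelled ADP, read after 1 h binding at 22 °C, enzyme near 2.5 ng/µl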
experimental conditions: 50 μM ATP, 20 μM acetyl-CoA, 15 min pre-incubation, 20 min at 22° C.; read-out: ACC 1 IC50
quantity kind: IC50 (nM)

[[record]]
compound = "COCCC1CCCC2(C1)OC(=O)C(c1cc(-c3ccc(Cl)cc3)ccc1C)=C2O (stereo not drawn)"
measured = 479


a: Cc1ccc(-c2ccc(C(F)(F)F)cc2)cc1C1=C(O)C2(CCCCC2)NC1=O
b: Cc1ccc(-c2ccc(Cl)cc2)cc1C1=C(O)C2(CC2)OC1=O
c: COCC1CCC2(CC1)OC(=O)C(c1c(C)ccc(-c3ccc(Cl)cc3)c1C)=C2O (stereo not drawn)
Put the entries in order of IC50, starting with the largest number. Output spec: labels arranged per the requested ranking.
a, b, c
